As shown below, each of these binders has a reported pKd value.
target: T1, RSV postfusion F (postF), subtype A (respiratory syncytial virus subtype A, UniProt P03420 26-513); assay: BLI, IgG
T1 construct: also called Postfusion subtype A; F deltaFP
Note: pKd values are expressed as the negative base-10 logarithm of concentration in M.

These recorded examples may help you get a feel for the data.
BINDER	VALUE_MEASURED
ADI-22778 (antibody, V domains shown, full-length IgG) VH: EVQLVESGPGLVKPSETLSLTCTVSGGSINSYSWTWIRQPPGKGLEWLGSFDYSGSNTYNPSLKSRVTIAVDTSKNQFSLKLTSATAADTAVYYCARAPVYDSSGYYLYYFDNWGQGTLVTVSS VL: DIQMTQSPSSLSASVGDRVTITCRASQSIASYLNWYQQKPGKAPKLLIFAASNLHSGVPSRFSGSGSGTTFTLTISSLQPEDFATYYCQQSYSIRFFTFGPGTKLEIK	9.68
ADI-19483 (antibody, V domains shown, full-length IgG) VH: QVQLVQSGAEVKKPGESLKISCKGSGYSFTTYWIGWVRQMPGKGLEWMGIIFPGDSDTRYSPSFQGQVTISADKSISTAYLQWSSLKASDTAMYFCARSAFPFGFDIWGQGTMVTVSS VL: SYVLTQPHSVSESPGKTVTISCTRSSGSIASNYVQWYQQRPGSSPTTVIYEDHQRPSGVPDRFSGSIDSSSNSASLTISGLQTEDEADYYCQSYGSGNPWVFGGGTKVTVL	9.49

Could you now consider this next binder?
Suppose we examine the binder ADI-22759 (antibody, V domains shown, full-length IgG) VH: EVQLLESGGGLVKPGGSLRLSCAASGFSFSSYTMNWVRQAPGKGLEWVSSITGGSSYIDYAGSLKGRFTISRDNAKNSLYLQMNSLRVEDTAVYYCARDFPNIAVGGKTLDYWGQGTLVTVSS VL: QPVLTQPPSVSGAPGQRVTISCTGSSSNIGAGYDVHWFQQLPGTAPKLLIYVNNNRPSGVPDRFSGSKSGTSASLAITGLQAEDEADYYCQSYDRLSAVVFGGGTKVTVL ; what pKd value has been reported?
7.60
